These measurements were taken from ChEMBL document CHEMBL1687888.

tested on: SMMC-7721; assay: Cytotoxicity against human SMMC7721 cells for 72 hrs under hypoxic condition by MTT assay; format: functional, cell-based; settings: SMMC-7721, 72 h
PROPERTY: pIC50
Would you please state pIC50, meaning minus log10 of the concentration in mol/L, as a bare number?

pIC50 reading for CCCOCNc1n[n+]([O-])c2cc(OC)ccc2[n+]1[O-] : 5.97

// field: pIC50; key: [O-][n+]1nc(NCOCc2ccc(C(F)(F)F)cc2)[n+]([O-])c2ccccc21 ; value = 6.11

Data point: COc1ccc2c(c1)[n+]([O-])nc(NCOCc1ccccc1)[n+]2[O-] ; pIC50 = 5.92
